# target.under.test: α2A (Homo sapiens)
# Sequence (P08913 1-465): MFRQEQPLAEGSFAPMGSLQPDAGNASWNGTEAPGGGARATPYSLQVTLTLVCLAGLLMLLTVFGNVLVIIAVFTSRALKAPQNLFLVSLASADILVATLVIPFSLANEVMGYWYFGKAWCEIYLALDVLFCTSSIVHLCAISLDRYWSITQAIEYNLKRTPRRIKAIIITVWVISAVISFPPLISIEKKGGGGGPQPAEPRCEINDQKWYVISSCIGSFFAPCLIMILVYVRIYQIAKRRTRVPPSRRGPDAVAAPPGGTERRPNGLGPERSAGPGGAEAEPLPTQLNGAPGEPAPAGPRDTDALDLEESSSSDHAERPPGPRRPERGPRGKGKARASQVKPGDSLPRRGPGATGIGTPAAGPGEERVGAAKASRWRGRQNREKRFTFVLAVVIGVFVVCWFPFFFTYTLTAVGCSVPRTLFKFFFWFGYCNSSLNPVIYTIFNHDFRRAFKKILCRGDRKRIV
observed.property: pKi
Hey, just a heads up that pKi is the negative log base 10 of the concentration in molar.

response.value for "COc1cc2c3c(c1OC)-c1ccccc1C[C@H]3N(C)CC2" (field: pKi) = 5.94

----------
# target.under.test: α1D (Homo sapiens)
# Sequence (P25100 1-572): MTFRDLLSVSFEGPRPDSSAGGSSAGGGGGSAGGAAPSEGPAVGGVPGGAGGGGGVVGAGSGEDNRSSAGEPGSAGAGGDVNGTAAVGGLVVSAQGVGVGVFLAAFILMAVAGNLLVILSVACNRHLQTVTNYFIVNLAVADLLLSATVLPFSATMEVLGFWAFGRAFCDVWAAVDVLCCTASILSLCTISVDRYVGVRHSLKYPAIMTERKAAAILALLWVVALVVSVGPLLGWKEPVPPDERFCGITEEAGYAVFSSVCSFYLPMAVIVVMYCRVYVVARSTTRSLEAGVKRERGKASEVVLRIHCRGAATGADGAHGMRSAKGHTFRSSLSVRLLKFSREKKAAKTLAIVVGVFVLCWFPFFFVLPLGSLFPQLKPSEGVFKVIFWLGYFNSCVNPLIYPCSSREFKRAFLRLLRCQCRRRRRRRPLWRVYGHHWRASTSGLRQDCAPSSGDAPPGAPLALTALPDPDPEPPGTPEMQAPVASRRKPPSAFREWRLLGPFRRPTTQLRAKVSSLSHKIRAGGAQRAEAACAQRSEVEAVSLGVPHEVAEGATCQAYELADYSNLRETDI
observed.property: Ki (nM)
State the answer as a number, implicitly in nM.

response.value for "COc1cc2c3c(c1OC)-c1ccccc1C[C@H]3N(C)CC2" (field: Ki) = 818

----------
# target.under.test: D4 (Homo sapiens, UniProt P21917)
# Sequence (P21917 whole entry): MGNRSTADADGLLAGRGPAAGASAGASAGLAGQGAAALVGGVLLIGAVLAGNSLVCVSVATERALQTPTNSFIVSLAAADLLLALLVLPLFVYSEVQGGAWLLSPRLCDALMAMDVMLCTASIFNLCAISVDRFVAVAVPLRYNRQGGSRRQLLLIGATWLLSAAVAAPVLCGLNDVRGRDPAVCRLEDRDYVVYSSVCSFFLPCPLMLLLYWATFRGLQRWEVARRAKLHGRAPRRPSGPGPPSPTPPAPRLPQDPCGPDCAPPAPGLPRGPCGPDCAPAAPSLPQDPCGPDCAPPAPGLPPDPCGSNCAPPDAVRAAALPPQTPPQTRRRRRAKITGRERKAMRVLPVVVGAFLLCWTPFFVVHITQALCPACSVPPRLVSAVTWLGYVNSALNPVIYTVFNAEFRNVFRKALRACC
# assay.notes: PDSP receptor functional assay
# measurement.context: agonist
observed.property: pEC50
Hey, just a heads up that pEC50 is the negative log base 10 of the concentration in molar.

Form field pEC50 for item COc1cc2c3c(c1OC)-c1ccccc1C[C@H]3N(C)CC2 [nuciferine] on D4 (Homo sapiens, UniProt P21917): 5.70

----------
# target.under.test: D4 (Homo sapiens)
observed.property: Ki (nM)
State the answer as a number, implicitly in nM.

response.value for "COc1cc2c3c(c1OC)-c1ccccc1C[C@H]3N(C)CC2" (field: Ki) = 1390

----------
# target.under.test: H2 (Homo sapiens, UniProt P25021)
# Sequence (P25021 whole entry): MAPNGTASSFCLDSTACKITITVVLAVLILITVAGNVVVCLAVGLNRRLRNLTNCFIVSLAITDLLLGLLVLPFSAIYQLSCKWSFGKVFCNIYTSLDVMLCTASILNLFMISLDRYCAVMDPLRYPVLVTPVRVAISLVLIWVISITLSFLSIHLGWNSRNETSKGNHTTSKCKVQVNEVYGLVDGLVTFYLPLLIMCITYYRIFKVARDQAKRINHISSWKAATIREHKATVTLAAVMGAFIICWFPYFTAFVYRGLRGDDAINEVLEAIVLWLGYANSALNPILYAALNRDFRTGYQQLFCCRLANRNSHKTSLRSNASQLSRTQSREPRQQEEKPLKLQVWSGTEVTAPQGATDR
observed.property: Ki (nM)
State the answer as a number, implicitly in nM.

response.value for "COc1cc2c3c(c1OC)-c1ccccc1C[C@H]3N(C)CC2" (field: Ki) = 1660

----------
# target.under.test: α2C (Homo sapiens)
# Sequence (P18825 1-462): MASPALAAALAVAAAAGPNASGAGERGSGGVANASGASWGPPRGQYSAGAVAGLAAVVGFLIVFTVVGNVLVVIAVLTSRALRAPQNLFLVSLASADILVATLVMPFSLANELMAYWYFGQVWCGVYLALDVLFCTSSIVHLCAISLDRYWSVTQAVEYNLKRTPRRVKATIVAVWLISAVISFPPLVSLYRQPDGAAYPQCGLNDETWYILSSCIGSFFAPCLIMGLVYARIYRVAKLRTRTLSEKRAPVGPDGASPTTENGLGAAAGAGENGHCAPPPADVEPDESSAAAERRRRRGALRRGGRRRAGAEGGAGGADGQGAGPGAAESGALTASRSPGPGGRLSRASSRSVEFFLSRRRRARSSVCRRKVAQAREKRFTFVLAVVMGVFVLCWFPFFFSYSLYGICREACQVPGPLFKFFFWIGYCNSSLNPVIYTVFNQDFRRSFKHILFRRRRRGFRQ
observed.property: Ki

response.value for "COc1cc2c3c(c1OC)-c1ccccc1C[C@H]3N(C)CC2" (field: Ki) = 693 nM

----------
# target.under.test: 5-HT2A (Homo sapiens)
# Sequence (P28223 whole entry, looked up): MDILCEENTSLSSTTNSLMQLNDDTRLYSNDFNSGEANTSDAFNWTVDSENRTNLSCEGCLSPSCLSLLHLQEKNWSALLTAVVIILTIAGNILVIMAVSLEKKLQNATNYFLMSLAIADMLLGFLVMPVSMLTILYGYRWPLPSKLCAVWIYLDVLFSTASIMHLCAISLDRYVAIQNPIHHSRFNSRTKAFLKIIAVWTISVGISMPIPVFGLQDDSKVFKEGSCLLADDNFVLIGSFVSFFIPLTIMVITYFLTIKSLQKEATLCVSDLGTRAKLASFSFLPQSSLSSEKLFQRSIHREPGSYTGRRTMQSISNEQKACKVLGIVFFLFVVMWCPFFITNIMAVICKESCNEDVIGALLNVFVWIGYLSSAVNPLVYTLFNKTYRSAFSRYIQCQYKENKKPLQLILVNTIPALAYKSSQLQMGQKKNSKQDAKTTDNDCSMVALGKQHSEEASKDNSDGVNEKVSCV
# assay.notes: PDSP receptor functional assay
# measurement.context: antagonist
observed.property: EC50 (nM)
State the answer as a number, implicitly in nM.

response.value for "COc1cc2c3c(c1OC)-c1ccccc1C[C@H]3N(C)CC2" (field: EC50) = 478

----------
# target.under.test: α2B (Homo sapiens)
# Sequence (P18089 1-450): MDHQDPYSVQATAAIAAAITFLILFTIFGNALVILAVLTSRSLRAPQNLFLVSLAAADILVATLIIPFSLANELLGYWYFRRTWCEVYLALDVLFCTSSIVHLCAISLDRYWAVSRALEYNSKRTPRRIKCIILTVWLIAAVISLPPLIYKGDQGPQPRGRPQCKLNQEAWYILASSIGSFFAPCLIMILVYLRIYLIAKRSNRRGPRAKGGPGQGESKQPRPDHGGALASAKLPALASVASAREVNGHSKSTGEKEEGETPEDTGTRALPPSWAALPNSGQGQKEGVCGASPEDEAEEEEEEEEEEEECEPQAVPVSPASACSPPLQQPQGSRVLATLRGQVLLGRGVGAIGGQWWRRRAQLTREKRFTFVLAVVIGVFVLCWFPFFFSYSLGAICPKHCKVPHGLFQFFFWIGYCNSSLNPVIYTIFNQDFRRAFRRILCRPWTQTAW
observed.property: Ki
State the value, then name its unit.

Form field Ki for item "COc1cc2c3c(c1OC)-c1ccccc1C[C@H]3N(C)CC2" on α2B (Homo sapiens): 687 nM

----------
# target.under.test: 5-HT7 (Homo sapiens)
# Sequence (P34969 whole entry, species assumed): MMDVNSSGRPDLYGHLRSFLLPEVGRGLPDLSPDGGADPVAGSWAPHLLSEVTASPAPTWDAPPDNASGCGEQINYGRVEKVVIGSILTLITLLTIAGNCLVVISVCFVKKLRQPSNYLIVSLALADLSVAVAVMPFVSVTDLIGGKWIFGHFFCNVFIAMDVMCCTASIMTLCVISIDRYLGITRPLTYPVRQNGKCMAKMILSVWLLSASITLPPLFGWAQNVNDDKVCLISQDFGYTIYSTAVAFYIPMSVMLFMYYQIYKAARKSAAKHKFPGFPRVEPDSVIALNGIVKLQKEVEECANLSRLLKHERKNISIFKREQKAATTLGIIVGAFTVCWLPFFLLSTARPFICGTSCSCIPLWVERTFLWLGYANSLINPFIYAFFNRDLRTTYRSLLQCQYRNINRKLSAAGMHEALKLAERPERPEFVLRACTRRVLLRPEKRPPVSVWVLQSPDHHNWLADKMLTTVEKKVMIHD
observed.property: Ki (nM)
State the answer as a number, implicitly in nM.

Form field Ki for item COc1cc2c3c(c1OC)-c1ccccc1C[C@H]3N(C)CC2 [nuciferine] on 5-HT7 (Homo sapiens): 49.8

----------
# target.under.test: 5-HT6 (Homo sapiens)
# Sequence (P50406 whole entry, species assumed): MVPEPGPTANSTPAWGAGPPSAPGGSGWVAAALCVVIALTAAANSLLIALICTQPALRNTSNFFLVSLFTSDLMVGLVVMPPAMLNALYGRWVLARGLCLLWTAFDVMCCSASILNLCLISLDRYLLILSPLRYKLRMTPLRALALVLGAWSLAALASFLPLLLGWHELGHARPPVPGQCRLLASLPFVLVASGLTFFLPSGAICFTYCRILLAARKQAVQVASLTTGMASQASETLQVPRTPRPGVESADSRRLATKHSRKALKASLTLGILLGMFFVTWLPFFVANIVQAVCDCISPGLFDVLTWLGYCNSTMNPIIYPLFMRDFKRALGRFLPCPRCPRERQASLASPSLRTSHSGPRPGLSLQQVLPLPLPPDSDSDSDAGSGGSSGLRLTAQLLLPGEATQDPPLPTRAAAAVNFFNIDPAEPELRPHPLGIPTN
observed.property: Ki (µM)
State the answer as a number, implicitly in µM.

response.value for "COc1cc2c3c(c1OC)-c1ccccc1C[C@H]3N(C)CC2" (field: Ki) = 0.268

----------
# target.under.test: β3-AR (Homo sapiens)
# Sequence (P13945 whole entry): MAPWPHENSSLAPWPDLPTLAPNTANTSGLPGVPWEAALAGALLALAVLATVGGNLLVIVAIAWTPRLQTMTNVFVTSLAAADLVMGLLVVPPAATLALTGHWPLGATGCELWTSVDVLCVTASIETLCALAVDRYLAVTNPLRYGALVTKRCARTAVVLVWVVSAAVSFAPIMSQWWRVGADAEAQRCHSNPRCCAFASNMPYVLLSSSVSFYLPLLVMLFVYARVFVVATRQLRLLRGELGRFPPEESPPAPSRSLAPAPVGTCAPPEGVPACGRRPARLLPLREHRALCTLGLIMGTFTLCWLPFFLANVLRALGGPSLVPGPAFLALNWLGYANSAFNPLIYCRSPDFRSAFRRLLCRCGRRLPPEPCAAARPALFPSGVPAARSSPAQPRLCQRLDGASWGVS
observed.property: pKi
Hey, just a heads up that pKi is the negative log base 10 of the concentration in molar.

response.value for COc1cc2c3c(c1OC)-c1ccccc1C[C@H]3N(C)CC2 [nuciferine] (field: pKi) = 5.96

----------
# target.under.test: 5-HT2C (Homo sapiens)
# Sequence (P28335 33-458): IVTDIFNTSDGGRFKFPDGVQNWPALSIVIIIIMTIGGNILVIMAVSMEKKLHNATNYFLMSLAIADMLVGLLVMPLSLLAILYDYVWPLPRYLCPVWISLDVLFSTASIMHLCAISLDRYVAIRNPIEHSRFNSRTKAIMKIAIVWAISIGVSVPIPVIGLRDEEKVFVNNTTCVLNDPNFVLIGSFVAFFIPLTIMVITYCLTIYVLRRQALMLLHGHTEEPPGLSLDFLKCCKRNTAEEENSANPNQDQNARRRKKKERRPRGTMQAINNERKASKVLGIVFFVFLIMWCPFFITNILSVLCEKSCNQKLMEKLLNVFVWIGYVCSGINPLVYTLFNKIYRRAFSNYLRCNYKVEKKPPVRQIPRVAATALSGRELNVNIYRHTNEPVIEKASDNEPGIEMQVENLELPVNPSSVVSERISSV
# assay.notes: PDSP receptor functional assay
# measurement.context: 5-HT2C antagonist
observed.property: IC50 (nM)
State the answer as a number, implicitly in nM.

response.value for COc1cc2c3c(c1OC)-c1ccccc1C[C@H]3N(C)CC2 [nuciferine] (field: IC50) = 131

----------
# target.under.test: 5-HT2A (Homo sapiens)
observed.property: pKi
Hey, just a heads up that pKi is the negative log base 10 of the concentration in molar.

Form field pKi for item COc1cc2c3c(c1OC)-c1ccccc1C[C@H]3N(C)CC2 [nuciferine] on 5-HT2A (Homo sapiens): 6.51

----------
# target.under.test: α1B (Homo sapiens)
# Sequence (P35368 1-520): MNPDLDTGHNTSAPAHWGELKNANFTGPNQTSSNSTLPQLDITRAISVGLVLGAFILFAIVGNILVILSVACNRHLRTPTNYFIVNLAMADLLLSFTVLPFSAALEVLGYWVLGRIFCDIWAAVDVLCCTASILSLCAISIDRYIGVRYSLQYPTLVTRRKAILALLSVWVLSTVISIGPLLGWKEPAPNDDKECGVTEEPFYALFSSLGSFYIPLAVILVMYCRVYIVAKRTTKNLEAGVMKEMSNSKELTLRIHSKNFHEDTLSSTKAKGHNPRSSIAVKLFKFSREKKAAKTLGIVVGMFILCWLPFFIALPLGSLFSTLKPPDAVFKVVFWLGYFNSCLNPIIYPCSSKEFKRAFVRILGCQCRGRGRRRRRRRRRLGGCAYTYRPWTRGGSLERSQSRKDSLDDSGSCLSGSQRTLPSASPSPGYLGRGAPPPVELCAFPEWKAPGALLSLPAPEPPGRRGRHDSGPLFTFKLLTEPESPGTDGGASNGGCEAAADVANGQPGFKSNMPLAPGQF
observed.property: Ki (nM)
State the answer as a number, implicitly in nM.

Form field Ki for item "COc1cc2c3c(c1OC)-c1ccccc1C[C@H]3N(C)CC2" on α1B (Homo sapiens): 2000
